System: P388 leukemia ip, CD2F1 mice, survival T/C
ASSAY_SUMMARY: NCI In Vivo Anticancer Drug Screen. Data for tumor model P388 Leukemia (intraperitoneal) in CD2F1 (CDF1) mice
EXPERIMENTAL_CONDITIONS: endpoint: median survival time; dose: 200.0 mg/kg/injection; schedule: Q01DX005 (ip); vehicle: saline with Tween-80; higher = longer survival
Toxic doses and inconclusive results are not listed.
The reader will find reported T/C values listed item by item below.
QUANTITY: T/C

INSERT INTO measurements (compound, measured_value) VALUES
  ('COc1ccc(N=C(C)C2C(=O)c3ccccc3C2=O)cc1', '95 % of control'),
  ('NC(=S)n1nc(-c2ccccc2)c(N=Nc2ccccc2Cl)c1-c1ccccc1', '108 % of control'),
  ('CC(Sc1ccccn1)C(=O)c1ccccc1 (stereo not given)', '102 % of control'),
  ('COc1ccc(C(=O)Nc2ccccc2-c2ccccc2)cc1OC', '103 % of control'),
  ('O=C(OC(c1ccccc1)c1ccccc1)C1CSCN1C(=O)OCc1ccccc1[N+](=O)[O-] (stereo not given)', '100 % of control'),
  ('CC(/C=C/c1ccc2c(c1)OCO2)=N\NC(N)=O', '95 % of control'),
  ('C=CCNC(=S)Nc1ccccn1', '102 % of control'),
  ('CC1=C/C(=N/OS(=O)(=O)c2ccc(C)cc2)CC(C)(C)C1', '117 % of control'),
  ('[Cl][Sn]1([Cl])[CH2]CCCCCCCCCC[CH2][Sn]([Cl])([Cl])[CH2]CCCCCCCCCC[CH2]1', '91 % of control'),
  ('CSc1cnn(-c2ccccc2)[n+]1[O-]', '94 % of control'),
  ('O=S(=O)(/C=C\c1ccccc1)/C=C/c1ccc(F)cc1', '94 % of control'),
  ('CC(=O)C1(C)CCOC1=O (stereo not given)', '109 % of control'),
  ('CC(C)CC(NC(=O)C(CC(C)C)NC(=O)OCc1ccccc1)C(=O)O (stereo not given)', '94 % of control'),
  ('CC(C)CC(O)C(CC(=O)Nc1ccccc1)S(=O)(=O)c1ccccc1 (stereo not given)', '86 % of control'),
  ('CCc1cccc(C)c1NC(=O)CCc1nnc(N)n1N', '94 % of control'),
  ('CCOC(=O)c1cc(=O)c2c(OC)ccc(OC)c2[nH]1', '97 % of control'),
  ('Cc1ccc(NC(=O)c2cc(C)ccc2N)cc1', '101 % of control'),
  ('CC(C)CCNO', '93 % of control'),
  ('O=[N+]([O-])c1ccc2c(c1)c(S(=O)(=O)O)cc1nonc12', '93 % of control'),
  ('CCN=Cc1c(O)c(O)c(C(C)C)c2cc(C)c(-c3c(C)cc4c(C(C)C)c(O)c(O)c(C=NCC)c4c3O)c(O)c12', '104 % of control'),
  ('CC(=O)N1C=Cc2ccccc2C1C1NC=Cc2ccccc21 (stereo not given)', '88 % of control'),
  ('CCCCCCCCCCCCCCCCCCOC(=O)CCN', '113 % of control'),
  ('O=C(N=Nc1ccccc1)Nc1ccc(Cl)cc1', '90 % of control'),
  ('ClC1CC(C(Cl)(Cl)Cl)CCC1C(Cl)(Cl)Cl (stereo not given)', '96 % of control'),
  ('N#CCSCC(=O)c1ccccc1', '112 % of control');

----------
Test system: P388 leukemia ip, CD2F1 mice, survival T/C
ASSAY_SUMMARY: NCI In Vivo Anticancer Drug Screen. Data for tumor model P388 Leukemia (intraperitoneal) in CD2F1 (CDF1) mice
EXPERIMENTAL_CONDITIONS: endpoint: median survival time; dose: 200.0 mg/kg/injection; schedule: Q01DX009 (ip); vehicle: other; higher = longer survival
Toxic doses and inconclusive results are not listed.
The reader will find reported T/C values listed item by item below.
QUANTITY: T/C

INSERT INTO measurements (compound, quantity, measured_value) VALUES
  ('O=[N+]([O-])c1cc2c(cc1C=Nc1ccc(O)cc1)OCO2', 'T/C', '110 % of control'),
  ('COc1ccc(C(O)OC2CC3C=CC2C3)cc1 (stereo unspecified)', 'T/C', '111 % of control'),
  ('COC1c2cc3ccccc3nc2-c2ccccc2C1(C)C (stereo unspecified)', 'T/C', '89 % of control'),
  ('CC(C)(C)OC(=O)NNS(=O)(=O)CCC(N)C(=O)O (stereo unspecified)', 'T/C', '100 % of control'),
  ('CC(C)(C)NC1/C(=C\c2ccccc2)C(=O)c2ccccc2C1(C)C (stereo unspecified)', 'T/C', '124 % of control'),
  ('N#CSCc1c(Cl)cccc1Cl', 'T/C', '113 % of control');

----------
System: P388 leukemia ip, CD2F1 mice, survival T/C
ASSAY_SUMMARY: NCI In Vivo Anticancer Drug Screen. Data for tumor model P388 Leukemia (intraperitoneal) in CD2F1 (CDF1) mice
EXPERIMENTAL_CONDITIONS: endpoint: median survival time; dose: 60.0 mg/kg/injection; schedule: Q01DX005 (ip); vehicle: saline with Tween-80; higher = longer survival
Inconclusive results and toxic doses are left out.
The reader will find reported T/C values listed item by item below.
QUANTITY: T/C

INSERT INTO assay_data (compound, measurement_target, measured_value) VALUES
  ('Cc1ccc(C)n1-c1ccc(OCC(N)=O)cc1', 'P388 leukemia ip, CD2F1 mice, survival T/C', '104 % of control'),
  ('C=C1OC(=O)C(N)=C1C(C)=O', 'P388 leukemia ip, CD2F1 mice, survival T/C', '99 % of control'),
  ('CSCC[C@]1(C)C(=O)N(C)[C@H](C(C)(C)C)N1C(=O)c1ccccc1', 'P388 leukemia ip, CD2F1 mice, survival T/C', '99 % of control'),
  ('COc1cc(C(=O)CC(=O)CCC(=O)Nc2ccc(C)c(C)c2)ccc1O', 'P388 leukemia ip, CD2F1 mice, survival T/C', '102 % of control'),
  ('Cn1c(=S)[nH]n(CCOc2ccccc2)c1=S', 'P388 leukemia ip, CD2F1 mice, survival T/C', '118 % of control'),
  ('OC(c1ccccc1)C1CCNCC1 (stereo unspecified) (tested in a mixture with another compound)', 'P388 leukemia ip, CD2F1 mice, survival T/C', '105 % of control'),
  ('COC(=O)[C@@H]1CCC(/C(C#N)=C2/CC[C@@H](C(=O)OC)N2)=N1', 'P388 leukemia ip, CD2F1 mice, survival T/C', '96 % of control'),
  ('CCOC(=O)c1ccc(NC(=O)Oc2ccc(C(=O)OC)cc2)cc1', 'P388 leukemia ip, CD2F1 mice, survival T/C', '103 % of control'),
  ('Cc1nc2ccccc2nc1N', 'P388 leukemia ip, CD2F1 mice, survival T/C', '94 % of control'),
  ('Cc1c(C(=O)CC2OC(=O)C(Cl)=C2Cl)c2ccccc2n1C(=O)Nc1ccc(Cl)cc1 (stereo unspecified)', 'P388 leukemia ip, CD2F1 mice, survival T/C', '93 % of control'),
  ('O=C(N/N=C/c1ccco1)c1cccnc1', 'P388 leukemia ip, CD2F1 mice, survival T/C', '92 % of control');

----------
System: P388 leukemia ip, CD2F1 mice, survival T/C
ASSAY_SUMMARY: NCI In Vivo Anticancer Drug Screen. Data for tumor model P388 Leukemia (intraperitoneal) in CD2F1 (CDF1) mice
EXPERIMENTAL_CONDITIONS: endpoint: median survival time; dose: 200.0 mg/kg/injection; schedule: Q01DX005 (ip); vehicle: Klucel (hydroxypropylcellulose) (HPC); higher = longer survival
Toxic doses and inconclusive results are not listed.
QUANTITY: T/C

INSERT INTO results (compound, quantity, measured_value) VALUES
  ('CCc1cccc(CC)c1NC(=O)C(Sc1nc(-c2cccs2)cc(C(F)(F)F)c1C#N)c1ccccc1 (stereo unspecified)', 'T/C', '89 % of control'),
  ('COc1cccc2c1C1c3ccccc3Sc3cccc(c31)O2 (stereo unspecified)', 'T/C', '99 % of control'),
  ('CN(C)C(=O)n1cc(Cl)c(=O)c2c3ncn(C)c3ccc21', 'T/C', '100 % of control'),
  ('O=S(=O)(O)CN1CCN(CCN(CS(=O)(=O)O)CS(=O)(=O)O)CC1', 'T/C', '96 % of control'),
  ('O=C(Nc1nnc(-c2ccccc2)s1)c1cc(=O)c2cc(Cl)ccc2o1', 'T/C', '106 % of control'),
  ('O=C(NP1(=O)NCc2ccccc2CN1)OC1CCCC1', 'T/C', '88 % of control'),
  ('CCOC(=O)N1CC23C(C)C(C)=C(C)C2C3(C)N1C(=O)OCC (stereo unspecified)', 'T/C', '98 % of control'),
  ('CCCOC(=O)/C=C/C(=O)N1CC(C)N(C(=O)/C=C/C(=O)OCCC)CC1C (stereo unspecified)', 'T/C', '98 % of control'),
  ('C=CC(c1ccccc1)c1cc2c(cc1OCCC)OCO2 (stereo unspecified)', 'T/C', '105 % of control'),
  ('O=C1C(=Cc2ccccc2O)C(=O)N(c2ccccc2)C(=S)N1c1ccccc1', 'T/C', '100 % of control'),
  ('CC1(C)OC2(C)CCC1C1C2N1C(=O)c1ccccc1 (stereo unspecified)', 'T/C', '102 % of control');
